Assay: Selectivity index, ratio of IC50 for cytotoxicity against chinese hamster V79 cells to IC50 for cytotoxicity against human SW620 cells
Format: toxicity, cell-based
Settings: V79 cells versus SW620 cells, read-out: Ratio IC50

entry.smiles: CCCC[P+](CCCC)(CCCC)CCCCCCOC(=O)[C@H](CC)[C@H]1CC[C@H](C)[C@H]([C@@H](C)[C@H](O)[C@H](C)C(=O)[C@H](CC)[C@H]2O[C@]3(C=C[C@@H](O)[C@]4(CC[C@@](C)([C@H]5CC[C@](O)(CC)[C@H](C)O5)O4)O3)[C@H](C)C[C@@H]2C)O1.[Br-]
selectivity ratio: 1
//
entry.smiles: CC[C@@H](C(=O)[C@@H](C)[C@@H](O)[C@H](C)[C@@H]1O[C@@H]([C@@H](CC)C(=O)OCCCCCC[P+](c2ccccc2)(c2ccccc2)c2ccc(N(C)C)cc2)CC[C@@H]1C)[C@H]1O[C@]2(C=C[C@@H](O)[C@]3(CC[C@@](C)([C@H]4CC[C@](O)(CC)[C@H](C)O4)O3)O2)[C@H](C)C[C@@H]1C.[Br-]
selectivity ratio: 0.8
//
entry.smiles: CC[C@@H](C(=O)[C@@H](C)[C@@H](O)[C@H](C)[C@@H]1O[C@@H]([C@@H](CC)C(=O)OCCCCCC[P+](c2ccc(OC)cc2)(c2ccc(OC)cc2)c2ccc(OC)cc2)CC[C@@H]1C)[C@H]1O[C@]2(C=C[C@@H](O)[C@]3(CC[C@@](C)([C@H]4CC[C@](O)(CC)[C@H](C)O4)O3)O2)[C@H](C)C[C@@H]1C.[Br-]
selectivity ratio: 0.7

====

Experiment: Selectivity index, ratio of IC50 for cytotoxicity against human HaCaT cells to IC50 for cytotoxicity against human SW480 cells
Format: toxicity, cell-based
Details: HaCaT cells versus SW480 cells, read-out: Ratio IC50
outcome.measure: selectivity ratio

entry.smiles: CC[C@@H](C(=O)[C@@H](C)[C@@H](O)[C@H](C)[C@@H]1O[C@@H]([C@@H](CC)C(=O)OCCCC[P+](c2ccc(C)cc2)(c2ccc(C)cc2)c2ccc(C)cc2)CC[C@@H]1C)[C@H]1O[C@]2(C=C[C@@H](O)[C@]3(CC[C@@](C)([C@H]4CC[C@](O)(CC)[C@H](C)O4)O3)O2)[C@H](C)C[C@@H]1C.[Br-]
outcome.measure: selectivity ratio
recorded.value: 2.3
//
entry.smiles: CC[C@@H](C(=O)[C@@H](C)[C@@H](O)[C@H](C)[C@@H]1O[C@@H]([C@@H](CC)C(=O)OCCCC[P+](c2ccccc2)(c2ccccc2)c2ccccc2)CC[C@@H]1C)[C@H]1O[C@]2(C=C[C@@H](O)[C@]3(CC[C@@](C)([C@H]4CC[C@](O)(CC)[C@H](C)O4)O3)O2)[C@H](C)C[C@@H]1C.[Br-]
outcome.measure: selectivity ratio
recorded.value: 3.2
//
entry.smiles: CC[C@@H](C(=O)[C@@H](C)[C@@H](O)[C@H](C)[C@@H]1O[C@@H]([C@@H](CC)C(=O)O)CC[C@@H]1C)[C@H]1O[C@]2(C=C[C@@H](O)[C@]3(CC[C@@](C)([C@H]4CC[C@](O)(CC)[C@H](C)O4)O3)O2)[C@H](C)C[C@@H]1C
outcome.measure: selectivity ratio
recorded.value: 0.6

====

Test system: Mitochondrial membrane
Experiment: Induction of mitochondrial membrane potential loss in human A549 cells assessed as green fluorescence at IC50 incubated for 48 hrs MitoTracker Green FM staining based flow cytometry analysis (reference value: 8.93 %)
Assay type: cell membranes
As shown below, each of these molecules has a reported Activity value.

entry.smiles: N#CC(C#N)=NNc1cccc(Cl)c1
system.under.test: Mitochondrial membrane
Activity: 79.6%
--
entry.smiles: CC[C@@H](C(=O)[C@@H](C)[C@@H](O)[C@H](C)[C@@H]1O[C@@H]([C@@H](CC)C(=O)OCCCC[P+](c2ccccc2)(c2ccccc2)c2ccccc2)CC[C@@H]1C)[C@H]1O[C@]2(C=C[C@@H](O)[C@]3(CC[C@@](C)([C@H]4CC[C@](O)(CC)[C@H](C)O4)O3)O2)[C@H](C)C[C@@H]1C.[Br-]
system.under.test: Mitochondrial membrane
Activity: 41.7%
--
entry.smiles: CCCC[P+](CCCC)(CCCC)CCCCOC(=O)[C@H](CC)[C@H]1CC[C@H](C)[C@H]([C@@H](C)[C@H](O)[C@H](C)C(=O)[C@H](CC)[C@H]2O[C@]3(C=C[C@@H](O)[C@]4(CC[C@@](C)([C@H]5CC[C@](O)(CC)[C@H](C)O5)O4)O3)[C@H](C)C[C@@H]2C)O1.[Br-]
system.under.test: Mitochondrial membrane
Activity: 32.5%
--
entry.smiles: CC[C@@H](C(=O)[C@@H](C)[C@@H](O)[C@H](C)[C@@H]1O[C@@H]([C@@H](CC)C(=O)OCc2ccccc2)CC[C@@H]1C)[C@H]1O[C@]2(C=C[C@@H](O)[C@]3(CC[C@@](C)([C@H]4CC[C@](O)(CC)[C@H](C)O4)O3)O2)[C@H](C)C[C@@H]1C
system.under.test: Mitochondrial membrane
Activity: 25.5%

====

Assay: Selectivity index, ratio of IC50 for cytotoxicity against chinese hamster V79 cells to IC50 for cytotoxicity against human MDA-MB-231 cells
Format: toxicity, cell-based
Details: V79 cells versus MDA-MB-231 cells, read-out: Ratio IC50
Listed below: selectivity ratio values for each entry.

entry.smiles: CC[C@@H](C(=O)[C@@H](C)[C@@H](O)[C@H](C)[C@@H]1O[C@@H]([C@@H](CC)C(=O)OCCCC[P+](c2ccccc2)(c2ccccc2)c2ccccc2)CC[C@@H]1C)[C@H]1O[C@]2(C=C[C@@H](O)[C@]3(CC[C@@](C)([C@H]4CC[C@](O)(CC)[C@H](C)O4)O3)O2)[C@H](C)C[C@@H]1C.[Br-]
selectivity ratio: 0.2
//
entry.smiles: CC[C@@H](C(=O)[C@@H](C)[C@@H](O)[C@H](C)[C@@H]1O[C@@H]([C@@H](CC)C(=O)O)CC[C@@H]1C)[C@H]1O[C@]2(C=C[C@@H](O)[C@]3(CC[C@@](C)([C@H]4CC[C@](O)(CC)[C@H](C)O4)O3)O2)[C@H](C)C[C@@H]1C
selectivity ratio: 1.2
//
entry.smiles: CC[C@@H](C(=O)[C@@H](C)[C@@H](O)[C@H](C)[C@@H]1O[C@@H]([C@@H](CC)C(=O)OCCCCCC[P+](c2ccc(OC)cc2)(c2ccc(OC)cc2)c2ccc(OC)cc2)CC[C@@H]1C)[C@H]1O[C@]2(C=C[C@@H](O)[C@]3(CC[C@@](C)([C@H]4CC[C@](O)(CC)[C@H](C)O4)O3)O2)[C@H](C)C[C@@H]1C.[Br-]
selectivity ratio: 1

====

Tested on: Staphylococcus aureus
Assay: Antimicrobial activity against Staphylococcus aureus NCTC 4163 incubated for 18 hrs by twofold microdilution method
Format: functional
outcome.measure: MIC

entry.smiles: CC[C@@H](C(=O)[C@@H](C)[C@@H](O)[C@H](C)[C@@H]1O[C@@H]([C@@H](CC)C(=O)OCCCC[P+](c2ccccc2OC)(c2ccccc2OC)c2ccccc2OC)CC[C@@H]1C)[C@H]1O[C@]2(C=C[C@@H](O)[C@]3(CC[C@@](C)([C@H]4CC[C@](O)(CC)[C@H](C)O4)O3)O2)[C@H](C)C[C@@H]1C.[Br-]
recorded.value: 2 µg/mL
--
entry.smiles: CC[C@@H](C(=O)[C@@H](C)[C@@H](O)[C@H](C)[C@@H]1O[C@@H]([C@@H](CC)C(=O)OCCCCCC[P+](c2ccc(OC)cc2)(c2ccc(OC)cc2)c2ccc(OC)cc2)CC[C@@H]1C)[C@H]1O[C@]2(C=C[C@@H](O)[C@]3(CC[C@@](C)([C@H]4CC[C@](O)(CC)[C@H](C)O4)O3)O2)[C@H](C)C[C@@H]1C.[Br-]
recorded.value: 4 µg/mL

====

Experiment: Selectivity index, ratio of IC50 for cytotoxicity against chinese hamster V79 cells to IC50 for cytotoxicity against human MDA-MB-231 cells
Assay type: toxicity, cell-based
Conditions: V79 cells versus MDA-MB-231 cells, read-out: Ratio IC50

entry.smiles: CC[C@@H](C(=O)[C@@H](C)[C@@H](O)[C@H](C)[C@@H]1O[C@@H]([C@@H](CC)C(=O)OCc2ccccc2)CC[C@@H]1C)[C@H]1O[C@]2(C=C[C@@H](O)[C@]3(CC[C@@](C)([C@H]4CC[C@](O)(CC)[C@H](C)O4)O3)O2)[C@H](C)C[C@@H]1C
selectivity ratio: 0.3
--
entry.smiles: CC[C@@H](C(=O)[C@@H](C)[C@@H](O)[C@H](C)[C@@H]1O[C@@H]([C@@H](CC)C(=O)OCCCC[P+](c2ccccc2)(c2ccccc2)c2ccc(N(C)C)cc2)CC[C@@H]1C)[C@H]1O[C@]2(C=C[C@@H](O)[C@]3(CC[C@@](C)([C@H]4CC[C@](O)(CC)[C@H](C)O4)O3)O2)[C@H](C)C[C@@H]1C.[Br-]
selectivity ratio: 0.5
--
entry.smiles: CCCC[P+](CCCC)(CCCC)CCCCCCOC(=O)[C@H](CC)[C@H]1CC[C@H](C)[C@H]([C@@H](C)[C@H](O)[C@H](C)C(=O)[C@H](CC)[C@H]2O[C@]3(C=C[C@@H](O)[C@]4(CC[C@@](C)([C@H]5CC[C@](O)(CC)[C@H](C)O5)O4)O3)[C@H](C)C[C@@H]2C)O1.[Br-]
selectivity ratio: 0.6
--
entry.smiles: CC[C@@H](C(=O)[C@@H](C)[C@@H](O)[C@H](C)[C@@H]1O[C@@H]([C@@H](CC)C(=O)OCCCCCC[P+](c2ccc(C)cc2)(c2ccc(C)cc2)c2ccc(C)cc2)CC[C@@H]1C)[C@H]1O[C@]2(C=C[C@@H](O)[C@]3(CC[C@@](C)([C@H]4CC[C@](O)(CC)[C@H](C)O4)O3)O2)[C@H](C)C[C@@H]1C.[Br-]
selectivity ratio: 0.8
--
entry.smiles: CC[C@@H](C(=O)[C@@H](C)[C@@H](O)[C@H](C)[C@@H]1O[C@@H]([C@@H](CC)C(=O)OCCCC[P+](c2ccc(OC)cc2)(c2ccc(OC)cc2)c2ccc(OC)cc2)CC[C@@H]1C)[C@H]1O[C@]2(C=C[C@@H](O)[C@]3(CC[C@@](C)([C@H]4CC[C@](O)(CC)[C@H](C)O4)O3)O2)[C@H](C)C[C@@H]1C.[Br-]
selectivity ratio: 0.5
--
entry.smiles: CCCC[P+](CCCC)(CCCC)CCCCOC(=O)[C@H](CC)[C@H]1CC[C@H](C)[C@H]([C@@H](C)[C@H](O)[C@H](C)C(=O)[C@H](CC)[C@H]2O[C@]3(C=C[C@@H](O)[C@]4(CC[C@@](C)([C@H]5CC[C@](O)(CC)[C@H](C)O5)O4)O3)[C@H](C)C[C@@H]2C)O1.[Br-]
selectivity ratio: 0.7
